Value source: the supplement of paper PMC10567573

Reported values of protein stability index for individual entries
B1: DCAF4 (parent)
chain: DSHILLCLMGLAETPGCATLLPAS

variants of: B1; test: protein stability index of a GFP-peptide fusion (GPS, HEK-293T) (PSI 1-6); higher = more stable; settings: c terminus: a fixed tail appended;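 further: lentivirally expressed fusions sorted by FACS into six bins by GFP to DsRed ratio, PSI derived from sequencing read proportions per bin multiplied by bin number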
observation.type: protein stability index

>>> endpoint_value("M9G")
1.7
>>> endpoint_value("L11F")
2.98
>>> endpoint_value("L6Q")
1.81
>>> endpoint_value("E13F")
2.49
>>> endpoint_value("C17S")
2.81
>>> endpoint_value("C7V")
2.19
>>> endpoint_value("I4G")
2.11
>>> endpoint_value("E13D")
3.06
>>> endpoint_value("P22A")
3.01
>>> endpoint_value("T14W")
2.89
>>> endpoint_value("C7D")
1.78
>>> endpoint_value("P15C")
2.61
>>> endpoint_value("T19L")
2.15
>>> endpoint_value("S24Y")
2.91
>>> endpoint_value("T14C")
2.24
>>> endpoint_value("I4T")
1.93
>>> endpoint_value("G10D")
2.89
>>> endpoint_value("L6K")
2.19
>>> endpoint_value("C7W")
3.65
>>> endpoint_value("P15V")
2.59
>>> endpoint_value("L20I")
2.38
>>> endpoint_value("H3D")
2.49
